Assay: chemical genetic growth profiling, strain panel (AID 1159580);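 further: tested at 20 µM; growth read once vehicle control cultures reached saturation at 30 °C; 1 = growth at the plate median or of vehicle wells; lower values mean less growth of the strain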
Details: S. cerevisiae deletion strains, growth OD, locus YLR221C, strain rsa3, hits give low values
Out of some 5,500 compounds screened, about 2,000 (36%) were called active. Not shown: some 18% with an inconclusive outcome. The list shows a part of the results.
Below, each entry is listed with its recorded normalized growth.
The response must contain the number and no unit.

*Q* Sample CCc1cccc2c3c([nH]c12)C(CC)(CC(=O)O)OCC3 (stereo unspecified) — what was its normalized growth?
*A* 0.993

====

Assay: chemical genetic growth profiling, strain panel (AID 1159580);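 further: tested at 20 µM; growth read once vehicle control cultures reached saturation at 30 °C; 1 = growth at the plate median or of vehicle wells; lower values mean less growth of the strain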
Settings: S. cerevisiae deletion strains, growth OD, locus YKL085W, strain MDH1 (second series), hits give low values
Among all 5,500 compounds or so, about 2,000 (36%) were called active. Not shown: some 18% with an inconclusive outcome. The list shows a part of the results.
value_type: normalized growth
The response must contain the number and no unit.

A selection of reference data follows.
INSERT INTO measurements (molecule, value_type, value_reported) VALUES
  ('COc1ccc(C2C(=O)c3ccccc3C2=O)cc1', 'normalized growth', 0.983),
  ('COc1ccc(C(=O)c2ccc(O)cc2)c(O)c1O', 'normalized growth', 1),
  ('COc1ccc(C(=O)c2ccccc2)c(O)c1O', 'normalized growth', 0.963),
  ('CC(=O)CC1CCCCN1 (stereo not drawn)', 'normalized growth', 0.983);

*Q* Sample NC1CC1c1ccccc1 (stereo not drawn) — what was its normalized growth?
*A* 1.03

*Q* Sample NC(N)=NC(N)=Nc1ccccc1 — what was its normalized growth?
*A* 1

*Q* Sample COC1(C)CCC2OC2(C)CCC2C1CC2(C)C (stereo not drawn) — what was its normalized growth?
*A* 1

*Q* Sample Cc1cc(C(C)(C)C)c(O)c(C)c1CC1=NCCN1 — what was its normalized growth?
*A* 1
